Test system: Fibroblast
experimental details: Multiplex assay against human fibroblast
Type: toxicity, cell-based
protocol conditions: 12 h, 1 µM, compound concentration 1 uM, replicate 1
reported property: Population Mitotic Cells (%)
// units = %; emit number, no label

Recorded Population Mitotic Cells (%), per entry:
CNC(=O)c1ccc(Nc2nc(OC3CCCC3)c3c(-c4ccc5nc(C)oc5c4)c[nH]c3n2)c(OC)c1 = 30
C=CCn1c(=O)c2cnc(Nc3ccc(N4CCN(C)CC4)cc3)nc2n1-c1cccc(C(C)(C)O)n1 = 30

Given the molecule CCOC(=O)c1c(C)[nH]c2ccc3c(c12)CN1CCc2cc(OC)ccc2C1O3 (stereo not drawn) , write its reported Population Mitotic Cells (%). 30
